# test_target: JAK2 JH2 WT (V536-D812) [W659A, W777A, F794H solubilizing mutations] (Homo sapiens, UniProt O60674, F794H/W659A/W777A)
# Construct: **JAK2 JH2 WT (V536-D812) [W659A, W777A, F794H solubilizing mutations]; C-thrombin-avi-His6; thrombin cleavage site (C); His6 (C); purchased Biortus
# Sequence (O60674 536-812 W659A/W777A/F794H): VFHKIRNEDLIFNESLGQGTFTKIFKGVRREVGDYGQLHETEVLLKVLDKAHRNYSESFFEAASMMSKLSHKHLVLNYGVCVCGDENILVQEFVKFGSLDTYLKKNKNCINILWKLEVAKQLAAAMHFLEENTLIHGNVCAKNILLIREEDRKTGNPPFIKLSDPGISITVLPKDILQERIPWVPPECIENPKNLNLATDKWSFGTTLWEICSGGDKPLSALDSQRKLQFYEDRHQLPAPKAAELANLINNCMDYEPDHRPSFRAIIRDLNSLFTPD
# test_name: Surface Plasmon Resonance (SPR) binding assay, JAK2 JH2 domain
property_measured: Kd

CNC(=O)c1nnc(NC(=O)C2CC2)cc1Nc1cccc(-c2cnn([C@@H]3CN(Cc4cccnn4)[C@H]3C)c2)c1OC (stereo in doubt); 0.01 to 10 nM
CNC(=O)c1nnc(NC(=O)C2CC2)cc1Nc1cccc(-c2ccc(C3CN(Cc4cnn(C)c4)C3)nc2)c1OC; 50 to 500 nM
CNC(=O)c1nnc(NC(=O)C2CC2)cc1Nc1cccc(-c2ccc(C3CN(Cc4ccc(Cl)cn4)C3)nc2)c1OC; 50 to 500 nM
CNC(=O)c1nnc(NC(=O)C2CC2)cc1Nc1cccc(-c2cnn(C3CN(Cc4cccc5ccnn45)C3)c2)c1OC; 0.01 to 10 nM
CNC(=O)c1nnc(NC(=O)C2CC2)cc1Nc1cccc(-c2ccc(C(=O)N(C)Cc3cn(C)nc3C)cc2)c1OC; 0.01 to 10 nM

Could you now consider this next molecule?
Q: Entry CNC(=O)c1nnc(NC(=O)C2CC2)cc1Nc1cccc(-c2ccc(C3CN(Cc4cccc(C#N)n4)C3)c(OC)c2)c1OC : reported Kd = ?
Result: 50 to 500 nM
